Hey, just so you know, these numbers are from patent EP4635969A1.

assay: Pharmacokinetic (PK) experiment in rats; assay type: in vivo, male SD rats; conditions: male, SD, rat, plasma, iv, 2 mg/kg, single
MEASURED_ENDPOINT: half-life

Name the recorded half-life for C[C@]12C=CC(=O)C=C1[C@@H](F)C[C@H]1[C@@H]3C[C@H]4OC(c5ccc(CSC6CCOC6=O)cc5)O[C@@]4(C(=O)CO)[C@@]3(C)C[C@H](O)[C@@]12F (stereo partly shown) [Compound 8] . < 30 min

====

biological target: glucocorticoid receptor (GR) (Homo sapiens, UniProt P04150); test: Assay for agonist activity on glucocorticoid receptor (luciferase reporter, HEK293 cells transfected with pBIND-GR plasmid); type: cell-based; settings: HEK293 cells transfected with pBIND-GR, luciferase signal; read-out: GR agonist EC50
Sequence (P04150 521-777): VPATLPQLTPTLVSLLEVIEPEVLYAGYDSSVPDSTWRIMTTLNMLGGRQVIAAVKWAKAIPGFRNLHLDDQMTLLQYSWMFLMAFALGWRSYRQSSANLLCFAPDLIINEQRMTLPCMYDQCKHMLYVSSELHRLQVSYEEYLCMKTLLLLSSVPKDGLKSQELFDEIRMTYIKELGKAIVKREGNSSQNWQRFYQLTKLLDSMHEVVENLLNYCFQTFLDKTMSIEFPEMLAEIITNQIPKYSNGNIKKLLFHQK
MEASURED_ENDPOINT: pEC50
Units for pEC50: none; it is -log10 of a concentration expressed in mol/L.

In the examples that follow, each entry is paired with its recorded pEC50.
C[C@]12C=CC(=O)C=C1CC[C@H]1[C@@H]3C[C@H]4OC(c5ccc(CNC6CCOC6=O)cc5)O[C@@]4(C(=O)CO)[C@@]3(C)C[C@H](O)[C@@]12F (stereo partly drawn)
8.79
C[C@]12C=CC(=O)C=C1[C@@H](F)C[C@H]1[C@@H]3C[C@H]4OC(c5ccc(CNC6CCOC6=O)cc5)O[C@@]4(C(=O)CO)[C@@]3(C)C[C@H](O)[C@@]12F (stereo partly drawn)
8.49

Now for the molecule whose pEC50 we want.
Tell me reported pEC50 for C[C@]12C=CC(=O)C=C1CC[C@H]1[C@@H]3C[C@H]4OC(c5ccc(CS(=O)(=O)C6CCOC6=O)cc5)O[C@@]4(C(=O)CO)[C@@]3(C)C[C@H](O)[C@@]12Cl (stereo partly drawn) , tested with glucocorticoid receptor (GR) (Homo sapiens, UniProt P04150). 8.46

====

experiment: Determination of stability in plasma in vitro, mouse plasma (LC-MS/MS); format: in vitro ADME; conditions: 37 °C, read-out: Half-life T1/2 (min) in plasma of different species, Mouse plasma
MEASURED_ENDPOINT: half-life at 1 µM

Name the recorded half-life at 1 µM for C[C@]12C=CC(=O)C=C1[C@@H](F)C[C@H]1[C@@H]3C[C@H]4OC(c5ccc(CSC6CCOC6=O)cc5)O[C@@]4(C(=O)CO)[C@@]3(C)C[C@H](O)[C@@]12F (stereo partly shown) . < 30 min

====

Assay: Pharmacokinetic (PK) experiment in rats
Format: in vivo, male SD rats
Conditions: male, SD, rat, plasma, iv, 2 mg/kg, single
Method: Pharmacological Example 11. Pharmacokinetic (PK) Experiment in Rats The solution was prepared before administration. Animals: 6 male SD rats, SPF grade (Beijing Vital River Laboratory Animal Technology Co., Ltd.). Animal grouping: The animals were weighed prior to administration, and the dosage was calculated based on body weight. […] Data processing: Pharmacokinetic parameters were calculated using Phoenix WinNonlin 8.2.0 based on the plasma drug concentration data at different time points.
MEASURED_ENDPOINT: AUC(0-t) (ng·h/mL)
Give just the numeric value; ng·h/mL need not be written.

Name the recorded AUC(0-t) for C[C@]12C=CC(=O)C=C1[C@@H](F)C[C@H]1[C@@H]3C[C@H]4OC(c5ccc(CSC6CCOC6=O)cc5)O[C@@]4(C(=O)CO)[C@@]3(C)C[C@H](O)[C@@]12F (stereo partly shown) [Compound 8] . 106
